- Tested on: PC-9
- Protocol summary: Antiproliferative activity against human PC-9 cells assessed as inhibition of cell growth incubated for 48 hrs in presence of 10-hydroxyl-evodiamine by MTT assay
- Assay type: functional, cell-based
- Setup conditions: PC-9, 48 h
Parameter measured: IC50
Answer with the number, then the unit.

Tell me the measured IC50 of C#Cc1cccc(Nc2ncnc3cc(OCCOC)c(OCCOC)cc23)c1 , please.
1720 nM

* * *

- Protocol summary: Antiproliferative activity against human PC9 Gefitinib-resistant (GR) cell assessed as inhibition of cell growth incubated for 48 hrs in presence of erlotinib by MTT assay
- Format: functional, cell-based
- Setup conditions: Gefitinib-resistant PC9, 48 h
Parameter measured: IC50 (µM)
The response must be a number in µM with no trailing unit.

                                item_smiles  parameter_measured  display_unit  recorded_value
0  CN1c2ccccc2C(=O)N2CCc3c([nH]c4ccc(O)cc34)[C@H]21                IC50            µM            3.05

Switching to the query record.
I am curious: what IC50 value has been reported for CN1c2ccccc2C(=O)N2CCc3c([nH]c4ccccc34)[C@H]21 ?
4.81

# credit: ChEMBL document CHEMBL5584219
